Values were extracted from patent US5935829A.

# method notes: in vitro
# measurement context: human, ahh-1 cells, RELATIVE SURVIVAL, 1 μM × 48 hours; induction CEPE

compound	viability at 48 h, 1 µM
C1=Cc2cc3cccc4ccc5ccc1c2c5c43 [CEPE, cyclopenteno(c,d)pyrene]	61%

* * *

# method notes: in vitro
# measurement context: human, ahh-1 cells, RELATIVE SURVIVAL, 25 μM × 48 hours; induction BNF

test smiles	viability at 48 h, 25 µM / %
Cc1cccc2c1ccc1ccccc12	47

* * *

# method notes: in vitro
# measurement context: human, ahh-1 cells, RELATIVE SURVIVAL, 14 mM × 48 hours; induction none

test smiles	viability at 48 h, 14000 µM / %
CN(C)N=O	92

* * *

# method notes: in vitro
# measurement context: human, ahh-1 cells, RELATIVE SURVIVAL

compound	viability at 48 h, 10 µM (%)
c1ccc2c(c1)-c1cccc3cccc-2c13 [Fla, fluoranthene]	105

* * *

# method notes: in vitro
# measurement context: human, ahh-1 cells, RELATIVE SURVIVAL, 5 mM × 48 hours; induction BNF

test smiles	viability at 48 h, 5000 µM
CN(C)N=O	112%

* * *

# method notes: in vitro
# measurement context: human, ahh-1 cells, RELATIVE SURVIVAL

test smiles	viability at 48 h, 40 µM (%)
c1ccc2c(c1)-c1cccc3cccc-2c13	75

* * *

# method notes: in vitro
# measurement context: human, ahh-1 cells, RELATIVE SURVIVAL, 59 μM × 24 hours
quantity kind: viability at 24 h, 59 µM (%)

compound	unit descriptor	obs value
CCOS(C)(=O)=O [EMS, ethyl methanesulfonate]	%	48

* * *

# method notes: in vitro
# measurement context: human, ahh-1 cells, RELATIVE SURVIVAL, 75 μM × 48 hours; induction none

molecule	viability at 48 h, 75 µM / %
CC(=O)Nc1ccc2c(c1)Cc1ccccc1-2 [2AAF, 2-acetoaminofluorene]	37

* * *

# method notes: in vitro
# measurement context: human, ahh-1 cells, RELATIVE SURVIVAL, 20 μM × 48 hours; induction none

test smiles	viability at 48 h, 20 µM [%]
c1cc2cccc3c4cccc5cccc(c(c1)c23)c54	95

* * *

# method notes: in vitro
# measurement context: human, ahh-1 cells, RELATIVE SURVIVAL, 20 μM × 48 hours; induction BNF
quantity kind: viability at 48 h, 20 µM (%)

compound	unit descriptor	obs value
c1cc2cccc3c4cccc5cccc(c(c1)c23)c54 [Per, perylene]	%	89

* * *

# method notes: in vitro
# Assay type: cell-based
# measurement context: human, ahh-1 cells, 1.0 μg/ml at 24 hrs, read-out: Relative Survival

test smiles	viability at 24 h (%)
COc1ccc2nc3cc(Cl)ccc3c(NCCCNCCCl)c2c1	13

* * *

# method notes: in vitro
# Assay type: cell-based, human
# measurement context: human, g6-a5 cells, 0.1 μg/ml; G6-A5 clone; read-out: Relative Survival

test smiles	viability at 24 h / %
c1ccc2c(c1)cc1ccc3cccc4ccc2c1c34	37

* * *

# method notes: in vitro
# measurement context: human, ahh-1 cells, RELATIVE SURVIVAL, 1.25 μM × 24 hours

test smiles	viability at 24 h, 1.25 µM (%)
COc1ccc2nc3cc(Cl)ccc3c(NCCCNCCCl)c2c1	48

* * *

# method notes: in vitro
# measurement context: human, ahh-1 cells, RELATIVE SURVIVAL

compound	viability at 48 h, 50 µM
c1ccc2c(c1)-c1cccc3cccc-2c13 [Fla, fluoranthene]	67%

* * *

# method notes: in vitro
# measurement context: human, ahh-1 cells, RELATIVE SURVIVAL, 100 μM × 24 hours

compound	viability at 24 h, 100 µM / %
CCOS(C)(=O)=O [EMS, ethyl methanesulfonate]	36

* * *

# method notes: in vitro
# Format: cell-based, human
# measurement context: human, 6-tg resistant ahh-1 cells, 1.0 μg/ml at 24 hrs; 6-TG^r AHH-1 cells; read-out: Relative Survival
quantity kind: viability at 24 h

test smiles	obs value
COc1ccc2nc3cc(Cl)ccc3c(NCCCNCCCl)c2c1	14%
